target: human IL-6 (human, UniProt P05231 30-212); assay: SPR Biacore, purified, Protein A capture, 37 C
Sequence (P05231 30-212 limits assumed): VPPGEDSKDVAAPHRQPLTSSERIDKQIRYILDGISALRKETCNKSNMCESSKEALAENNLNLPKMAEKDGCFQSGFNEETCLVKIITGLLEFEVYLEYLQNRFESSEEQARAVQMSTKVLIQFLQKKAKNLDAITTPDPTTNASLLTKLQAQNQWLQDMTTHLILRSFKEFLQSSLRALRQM
MEASUREMENT_KIND: koff (s⁻¹)
Provide the reading as a plain figure in s⁻¹.

Could you tell me which koff is on file for Anti-IL-6 antibody, heavy chain S35H, G66D, L100G / light chain M32L, M50D, N52S, M88Q (antibody, IgG1, V domains shown, IgG1; variable domains only; VL is variant III) VH: EVQLVESGGGLVQPGGSLRLSCAASGFTFSPFAMHWVRQAPGKGLEWVAKISPGGSWTYYSDTVTDRFTFSLDTSKSTAYLQMNSLRAEDTAVYYCARQGWGYYALDIWGQGTLVTVSS VL: DIQLTQSPSSLSASVGDRVTITCSASISVSYLYWYQQKPGKAPKLLIYDDSSLASGVPSRFSGSGSGTDFTLTISSLQPEDFATYYCQQWSGYPYTFGQGTKVEIK ?
0.000694
